Reference for the values: ChEMBL document CHEMBL3400001

test system: Staphylococcus aureus; assay: Antimicrobial activity against Staphylococcus aureus Smith by micro broth dilution or agar based method; assay type: functional; details: Staphylococcus aureus, Smith; read-out: MIC
attributeMeasured: MIC
// return the numeric value with its unit appended

Query string: GET /values?readout=MIC&item= `CO[C@@]1(CC23CCC(NCc4ccc5c(n4)NC(=O)CO5)(CC2)CO3)Cn2c(=O)ccc3ncc(F)c1c32`
Result string: 4 mg/L

Query string: May I ask what MIC has been recorded for `O=C1COc2ccc(CNC34CCC(C[C@]5(O)Cn6c(=O)ccc7nc(Cl)c(F)c5c76)(CC3)OC4)nc2N1` ?
Result string: 4 mg/L

Query string: Need MIC, item `O=C1COc2ccc(CNC34CCC(C[C@@]5(O)Cn6c(=O)ccc7ncc(Cl)c5c76)(CC3)OC4)nc2N1`
Result string: 4 mg/L

###

test system: Haemophilus influenzae; experiment: Antimicrobial activity against Haemophilus influenzae ATCC 49247 by micro broth dilution or agar based method; type: functional
Assign MIC to each entry below.
# number only, unit µg/mL dropped from output

Query string: // lookup MIC for O=C1COc2ccc(CNC34CCC(CC5(O)Cn6c(=O)c(Cl)cc7ncc(F)c5c76)(CC3)OC4)nc2N1 (racemic)
Result string: 8

Query string: Can you share its MIC? I mean this compound: `O=C1COc2ccc(CNC34CCC(C[C@@]5(O)Cn6c(=O)c(F)cc7ncc(F)c5c76)(CC3)OC4)nc2N1`
Result string: 8

Query string: // query MIC value for entry O=C1COc2ccc(CNC34CCC(CC5(O)Cn6c(=O)cc(Cl)c7ncc(F)c5c76)(CC3)OC4)nc2N1 (racemic)
Result string: 8
